Values from patent US20140066365A1

- Tested on: PaR3: Pseudomonas aeruginosa
- method: Antibiogram, MIC by the VITEK 2 system
- Format: cell-based
- test_settings: Table H1
parameter_measured: MIC

Illustrative cases are given below, each with its answer.
mol_smiles: NC[C@H]1O[C@H](O[C@H]2[C@H](O)[C@@H](O[C@H]3O[C@H](CO)[C@@H](O)[C@H](N)[C@H]3O)[C@H](N)C[C@@H]2N)[C@H](N)C[C@@H]1O
MIC: ≧16
//
mol_smiles: CCN1CCN(C(=O)N[C@@H](C(=O)N[C@@H]2C(=O)N3[C@@H]2SC(C)(C)[C@@H]3C(=O)O)c2ccccc2)C(=O)C1=O
MIC: ≧128
//
mol_smiles: CN(C)c1ccc(O)c2c1C[C@H]1C[C@H]3[C@H](N(C)C)C(O)=C(C(N)=O)C(=O)[C@@]3(O)C(O)=C1C2=O
MIC: 4 µg/mL
//
mol_smiles: C[C@@H](O)[C@H]1C(=O)N2C(C(=O)O)=C(S[C@@H]3CN[C@H](C(=O)N(C)C)C3)[C@H](C)[C@H]12
MIC: ≧16
//
mol_smiles: CC(C)(O/N=C(\C(=O)N[C@@H]1C(=O)N2C(C(=O)[O-])=C(C[n+]3ccccc3)CS[C@H]12)c1csc(N)n1)C(=O)O
MIC: 4 µg/mL

Notebook: pull reported MIC for PaR3: Pseudomonas aeruginosa, entry CC1(C)S[C@@H]2[C@H](NC(=O)[C@H](C(=O)O)c3ccsc3)C(=O)N2[C@H]1C(=O)O
≧128

So what MIC did C[C@@H](O)[C@H]1C(=O)N2C(C(=O)O)=C(SCCN=CN)C[C@H]12 get with PaR3: Pseudomonas aeruginosa?
≧16

Query for PaR3: Pseudomonas aeruginosa: what MIC does the record show for NCC[C@H](O)C(=O)N[C@@H]1C[C@H](N)[C@@H](O[C@H]2O[C@H](CN)[C@@H](O)[C@H](O)[C@H]2O)[C@H](O)[C@H]1O[C@H]1O[C@H](CO)[C@@H](O)[C@H](N)[C@H]1O ?
4 µg/mL

* * *

- Tested on: EcR2: Cephalosporinase-Hyperproducing Strain of Escherichia coli
- method: Antibiogram by the disk diffusion technique
- Format: cell-based
- test_settings: EcR2; from diameter; EUCAST 2011
parameter_measured: EUCAST Interpretation

mol_smiles: NC[C@H]1O[C@H](O[C@H]2[C@H](O)[C@@H](O[C@H]3O[C@H](CO)[C@@H](O)[C@H](N)[C@H]3O)[C@H](N)C[C@@H]2N)[C@H](N)C[C@@H]1O
recorded_result: Resistant
//
mol_smiles: CO[C@@]1(NC(=O)Cc2cccs2)C(=O)N2C(C(=O)O)=C(COC(N)=O)CS[C@@H]21
recorded_result: Resistant
//
mol_smiles: CO/N=C(\C(=O)N[C@@H]1C(=O)N2C(C(=O)O)=C(COC(C)=O)CS[C@H]12)c1csc(N)n1
recorded_result: Resistant

* * *

- Test system: EcR3: ESBL-Producing Escherichia coli
- method: Antibiogram by the disk diffusion technique
- Assay type: cell-based
- test_settings: Cd CLSI 2011
parameter_measured: CLSI Interpretation

Worked cases, answers included:
mol_smiles: CCN[C@@H]1C[C@H](N)[C@@H](O[C@H]2OC(CN)=CC[C@H]2N)[C@H](O)[C@H]1O[C@H]1OC[C@](C)(O)[C@H](NC)[C@H]1O
CLSI Interpretation: Resistant
//
mol_smiles: NCC[C@H](O)C(=O)N[C@@H]1C[C@H](N)[C@@H](O[C@H]2O[C@H](CN)[C@@H](O)[C@H](O)[C@H]2O)[C@H](O)[C@H]1O[C@H]1O[C@H](CO)[C@@H](O)[C@H](N)[C@H]1O
CLSI Interpretation: Susceptible
//
mol_smiles: NC[C@H]1O[C@H](O[C@H]2[C@H](O)[C@@H](O[C@H]3O[C@H](CO)[C@@H](O)[C@H](N)[C@H]3O)[C@H](N)C[C@@H]2N)[C@H](N)C[C@@H]1O
CLSI Interpretation: Resistant
//
mol_smiles: CCN1CCN(C(=O)N[C@@H](C(=O)N[C@@H]2C(=O)N3[C@@H]2SC(C)(C)[C@@H]3C(=O)O)c2ccccc2)C(=O)C1=O
CLSI Interpretation: Resistant
//
mol_smiles: CC1(C)S[C@@H]2[C@H](NC(=O)[C@H](N)c3ccc(O)cc3)C(=O)N2[C@H]1C(=O)O
CLSI Interpretation: Resistant

Look up CLSI Interpretation for this compound: CC1(C)S[C@@H]2[C@H](NC(=O)[C@H](C(=O)O)c3ccsc3)C(=O)N2[C@H]1C(=O)O
Resistant

Which CLSI Interpretation value is on record for CC(=O)OCC1=C(C(=O)O)N2C(=O)[C@@H](NC(=O)Cc3cccs3)[C@H]2SC1 ?
Resistant

Consider the compound shown here: CO[C@@]1(NC(=O)Cc2cccs2)C(=O)N2C(C(=O)O)=C(COC(N)=O)CS[C@@H]21 What is its recorded CLSI Interpretation?
Resistant

Entry C[C@@H]1O[C@@H]1P(=O)(O)O : reported CLSI Interpretation = ?
Susceptible

So what does the record say about CLSI Interpretation for CO/N=C(\C(=O)N[C@@H]1C(=O)N2C(C(=O)O)=C(COC(C)=O)CS[C@H]12)c1csc(N)n1 ?
Resistant
